Test system: HS 578T breast
Experiment: NCI tumour cell line growth inhibition, 48 h
Measured TGI values are reported for all entries that follow.

Q. Dear colleague, please send me the reported TGI for `Cc1ccc(N=Nc2c(O)c(C(=O)Nc3ccccc3)cc3ccccc23)c([N+](=O)[O-])c1` when you can.
A. > 100 µM

Q. Dear colleague, please send me the reported TGI for `Nc1ccc(-c2nc3ccccc3[nH]2)c2ccccc12` when you can.
A. > 30 µM

Q. Dear colleague, please send me the reported TGI for `O=C(/C=C/c1csc(-c2ccccc2)n1)NCc1ccc(C(=O)NCc2ccccc2)cc1` when you can.
A. > 100 µM

Q. Dear colleague, please send me the reported TGI for `CCC(c1c[nH]c2ccc(Br)cc12)c1c[nH]c2ccc(Br)cc12` when you can.
A. 27 µM

Q. Dear colleague, please send me the reported TGI for COc1ccc(-n2cnc3c(NC(CCSC)C(=O)O)ncnc32)cc1 (stereo not drawn) when you can.
A. > 100 µM

Q. Dear colleague, please send me the reported TGI for CN1CCN(CC(O)COc2c(Br)c(Br)c(Br)c3c2OC(C)(C)C3)CC1 (stereo not drawn) when you can.
A. 42.7 µM

Q. Dear colleague, please send me the reported TGI for O=c1[nH]cnc2c(C3NC(CO)C(O)C3O)c[nH]c12 (stereo not drawn) when you can.
A. > 100 µM

Q. Dear colleague, please send me the reported TGI for `O=[N+]([O-])c1cc(S(=O)(=O)Oc2ccccc2)ccc1Cl` when you can.
A. 6.73 µM
